Where these numbers come from: patent US5932772A

Assay: Ligand partition coefficient between polar solvent and hexane
Format: physicochemical
Conditions: acetonitrile/hexane, ambient temperature
reported_metric: Kpartition
Respond using a number only.

The following compounds have reported results that may help.
[Q] Entry COc1cc(C(C)(C)C)c2op(Oc3ccccc3C#N)oc3c(C(C)(C)C)cc(OC)cc3c2c1 : reported Kpartition = ?
[A] 5.2

[Q] Recorded Kpartition for CCCCCCCCCCCCCCP(c1ccc(C#N)cc1)c1ccc(C#N)cc1 , please?
[A] 7

[Q] Can you look up the measured Kpartition of O=[N+]([O-])c1ccc(Op2oc3ccccc3c3ccccc3o2)cc1 for me?
[A] 22

***
[Q] Return reported Kpartition; argument: c1ccc(-c2ccccc2Op2oc3ccccc3c3ccccc3o2)c(Op2oc3ccccc3c3ccccc3o2)c1
[A] 25

[Q] Quick one: Kpartition of N#Cc1cccc(P(c2cccc(C#N)c2)c2cccc(C#N)c2)c1 ?
[A] 470

[Q] If you can, please state the reported Kpartition value of c1ccc(P(c2ccccc2)C2CCCCC2)cc1 [CHDPP, cyclohexyldiphenylphosphine, reference compound] .
[A] 0.5

* * *

Test: Ligand partition coefficient between polar solvent and hexane
Assay type: physicochemical
Conditions: summary table; acetonitrile and hexane
Reported Kpartition values for the following molecules.
Just the number, please, no unit attached.

[Q] Please give the measured Kpartition for this molecule: COc1cc(C(C)(C)C)c2op(Oc3ccccc3C#N)oc3c(C(C)(C)C)cc(OC)cc3c2c1
[A] 5.2

Next:
[Q] Could you share which Kpartition value was measured for O=P(CCP(c1ccccc1)c1ccccc1)(c1ccccc1)c1ccccc1 ?
[A] 920

[Q] Item c1ccc(P(c2ccccc2)c2ccccc2)cc1 [TPP, triphenylphosphine, reference compound] has what recorded Kpartition?
[A] 1.3

[Q] Given CCCCCCCCCCCCCCP(c1ccc(C#N)cc1)c1ccc(C#N)cc1 , state its recorded Kpartition.
[A] 7

[Q] Form field: reported Kpartition of COc1cc(C(C)(C)C)c2op(Oc3ccc([N+](=O)[O-])cc3)oc3c(C(C)(C)C)cc(OC)cc3c2c1
[A] 5.3

[Q] Fill blank: measured Kpartition of the molecule N#Cc1ccc(Op2oc3ccccc3c3ccccc3o2)cc1 is ____.
[A] 30

[Q] Fill blank: measured Kpartition of the molecule N#Cc1cccc(P(c2cccc(C#N)c2)c2cccc(C#N)c2)c1 is ____.
[A] 470

* * *

Test: Ligand partition coefficient between polar solvent and hexane
Format: physicochemical
Conditions: acetonitrile/hexane, ambient temperature
reported_metric: Kpartition
I only need the number, thanks.

[Q] Sample O=P(CCP(c1ccccc1)c1ccccc1)(c1ccccc1)c1ccccc1 — what was its Kpartition?
[A] 920

[Q] // lookup Kpartition for O=P(CP(c1ccccc1)c1ccccc1)(c1ccccc1)c1ccccc1
[A] 80

[Q] Dear colleague, I am looking for the recorded Kpartition of the following molecule: N#Cc1ccc(Op2oc3ccccc3c3ccccc3o2)cc1
[A] 30

// switching to the query molecule
[Q] What Kpartition value was documented for this molecule, N#Cc1ccc(P(c2ccc(C#N)cc2)c2ccc(C#N)cc2)cc1 ?
[A] 430

* * *

Test: Ligand partition coefficient between polar solvent and hexane
Format: physicochemical
Conditions: acetonitrile/hexane, ambient temperature
reported_metric: Kpartition
Give the figure by itself; no unit, no explanation.

[Q] Return reported Kpartition; argument: C1CCC(P(C2CCCCC2)C2CCCCC2)CC1 [TCHP, tricyclohexylphosphine, reference compound]
[A] 0.2

[Q] Value lookup for Kpartition; key = COc1ccc(P(c2ccc(OC)cc2)c2ccc(OC)cc2)cc1
[A] 11

[Q] Please report the recorded Kpartition for N#Cc1cccc(Op2oc3ccccc3c3ccccc3o2)c1 .
[A] 28

Further cases:
[Q] Which measured Kpartition value corresponds to COc1cc(C(C)(C)C)c2op(Oc3ccc([N+](=O)[O-])cc3)oc3c(C(C)(C)C)cc(OC)cc3c2c1 ?
[A] 5.3

[Q] Consider the compound shown here: c1ccc(P(c2ccccc2)c2ccccc2)cc1 [TPP, triphenylphosphine, reference compound] What is its recorded Kpartition?
[A] 1.3

[Q] Which Kpartition value is on record for OCCCP(c1ccccc1)c1ccccc1 ?
[A] 26

* * *

Test: Ligand partition coefficient between polar solvent and hexane
Assay type: physicochemical
Settings: DMSO/hexane, ambient temperature
Answer false if Kpartition is under 400, and true if it is 400 or more.

[Q] Answer whether Kpartition of O=P(CP(c1ccccc1)c1ccccc1)(c1ccccc1)c1ccccc1 is greater than or equal to 400.
[A] true

[Q] Is the recorded value of Kpartition equal to or greater than 400 for this compound? c1ccc(P(c2ccccc2)c2ccccc2)cc1 [TPP, triphenylphosphine, reference compound]
[A] false

[Q] Entry N#Cc1cccc(P(c2cccc(C#N)c2)c2cccc(C#N)c2)c1 : is its Kpartition no less than 400?
[A] true

Others:
[Q] Kpartition >= 400 for N#Cc1ccc(P(c2ccc(C#N)cc2)c2ccc(C#N)cc2)cc1 ?
[A] true

[Q] Does the reported Kpartition for O=P(CCP(c1ccccc1)c1ccccc1)(c1ccccc1)c1ccccc1 fall at or above the 400 mark?
[A] true

[Q] State whether the measured Kpartition reaches 400, counting equality as reaching it, for c1ccc(P(c2ccccc2)C2CCCCC2)cc1 [CHDPP, cyclohexyldiphenylphosphine, reference compound]
[A] false

* * *

Test: Ligand partition coefficient between polar solvent and hexane
Format: physicochemical
Settings: DMF/hexane, ambient temperature
Rule: Kpartition below 50 gives yes, anything at or above gives no.

Before answering, review these 3 worked examples.
[Q] Consider the molecule N#Cc1ccc(P(c2ccc(C#N)cc2)c2ccc(C#N)cc2)cc1 . Is its Kpartition strictly less than 50?
[A] no

[Q] Is it true that Kpartition reported for c1ccc(P(c2ccccc2)c2ccccc2)cc1 [TPP, triphenylphosphine, reference compound] is less than 50?
[A] yes

[Q] Hello, is Kpartition of the following molecule strictly smaller than 50? O=P(CCP(c1ccccc1)c1ccccc1)(c1ccccc1)c1ccccc1
[A] no

Others:
[Q] Below 50 on Kpartition? Entry c1ccc(P(c2ccccc2)C2CCCCC2)cc1 [CHDPP, cyclohexyldiphenylphosphine, reference compound]
[A] yes

[Q] Does N#Cc1cccc(P(c2cccc(C#N)c2)c2cccc(C#N)c2)c1 have Kpartition strictly under 50?
[A] no
